biological target: optimised anti-ras zinc finger peptide (Asn at helix +3 of finger 1) (Artificial Sequence, S21N (finger 1 helix position +3 Ser to Asn; numbering of SEQ 14)); experiment: apparent Kd; phage binding; settings: protein: virion; label: biotin
Sequence (chain, as listed by the source with the stated changes): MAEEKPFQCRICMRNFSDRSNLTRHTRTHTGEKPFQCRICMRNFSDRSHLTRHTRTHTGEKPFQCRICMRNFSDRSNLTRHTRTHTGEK
Observable: Kd

# Kd lookup, item EJ mutant (G12V) H-ras DNA, codons 8-16 (dsDNA) DNA 1: GTGGTGGGCGCCGTCGGTGTGGGCAAG DNA 2: CTTGCCCACACCGACGGCGCCCACCAC
3 nM
